# TESTED_SYSTEM: Neurogenic locus notch homolog protein 2 (Homo sapiens) (UniProt Q04721)
# Sequence (Q04721 whole entry, looked up): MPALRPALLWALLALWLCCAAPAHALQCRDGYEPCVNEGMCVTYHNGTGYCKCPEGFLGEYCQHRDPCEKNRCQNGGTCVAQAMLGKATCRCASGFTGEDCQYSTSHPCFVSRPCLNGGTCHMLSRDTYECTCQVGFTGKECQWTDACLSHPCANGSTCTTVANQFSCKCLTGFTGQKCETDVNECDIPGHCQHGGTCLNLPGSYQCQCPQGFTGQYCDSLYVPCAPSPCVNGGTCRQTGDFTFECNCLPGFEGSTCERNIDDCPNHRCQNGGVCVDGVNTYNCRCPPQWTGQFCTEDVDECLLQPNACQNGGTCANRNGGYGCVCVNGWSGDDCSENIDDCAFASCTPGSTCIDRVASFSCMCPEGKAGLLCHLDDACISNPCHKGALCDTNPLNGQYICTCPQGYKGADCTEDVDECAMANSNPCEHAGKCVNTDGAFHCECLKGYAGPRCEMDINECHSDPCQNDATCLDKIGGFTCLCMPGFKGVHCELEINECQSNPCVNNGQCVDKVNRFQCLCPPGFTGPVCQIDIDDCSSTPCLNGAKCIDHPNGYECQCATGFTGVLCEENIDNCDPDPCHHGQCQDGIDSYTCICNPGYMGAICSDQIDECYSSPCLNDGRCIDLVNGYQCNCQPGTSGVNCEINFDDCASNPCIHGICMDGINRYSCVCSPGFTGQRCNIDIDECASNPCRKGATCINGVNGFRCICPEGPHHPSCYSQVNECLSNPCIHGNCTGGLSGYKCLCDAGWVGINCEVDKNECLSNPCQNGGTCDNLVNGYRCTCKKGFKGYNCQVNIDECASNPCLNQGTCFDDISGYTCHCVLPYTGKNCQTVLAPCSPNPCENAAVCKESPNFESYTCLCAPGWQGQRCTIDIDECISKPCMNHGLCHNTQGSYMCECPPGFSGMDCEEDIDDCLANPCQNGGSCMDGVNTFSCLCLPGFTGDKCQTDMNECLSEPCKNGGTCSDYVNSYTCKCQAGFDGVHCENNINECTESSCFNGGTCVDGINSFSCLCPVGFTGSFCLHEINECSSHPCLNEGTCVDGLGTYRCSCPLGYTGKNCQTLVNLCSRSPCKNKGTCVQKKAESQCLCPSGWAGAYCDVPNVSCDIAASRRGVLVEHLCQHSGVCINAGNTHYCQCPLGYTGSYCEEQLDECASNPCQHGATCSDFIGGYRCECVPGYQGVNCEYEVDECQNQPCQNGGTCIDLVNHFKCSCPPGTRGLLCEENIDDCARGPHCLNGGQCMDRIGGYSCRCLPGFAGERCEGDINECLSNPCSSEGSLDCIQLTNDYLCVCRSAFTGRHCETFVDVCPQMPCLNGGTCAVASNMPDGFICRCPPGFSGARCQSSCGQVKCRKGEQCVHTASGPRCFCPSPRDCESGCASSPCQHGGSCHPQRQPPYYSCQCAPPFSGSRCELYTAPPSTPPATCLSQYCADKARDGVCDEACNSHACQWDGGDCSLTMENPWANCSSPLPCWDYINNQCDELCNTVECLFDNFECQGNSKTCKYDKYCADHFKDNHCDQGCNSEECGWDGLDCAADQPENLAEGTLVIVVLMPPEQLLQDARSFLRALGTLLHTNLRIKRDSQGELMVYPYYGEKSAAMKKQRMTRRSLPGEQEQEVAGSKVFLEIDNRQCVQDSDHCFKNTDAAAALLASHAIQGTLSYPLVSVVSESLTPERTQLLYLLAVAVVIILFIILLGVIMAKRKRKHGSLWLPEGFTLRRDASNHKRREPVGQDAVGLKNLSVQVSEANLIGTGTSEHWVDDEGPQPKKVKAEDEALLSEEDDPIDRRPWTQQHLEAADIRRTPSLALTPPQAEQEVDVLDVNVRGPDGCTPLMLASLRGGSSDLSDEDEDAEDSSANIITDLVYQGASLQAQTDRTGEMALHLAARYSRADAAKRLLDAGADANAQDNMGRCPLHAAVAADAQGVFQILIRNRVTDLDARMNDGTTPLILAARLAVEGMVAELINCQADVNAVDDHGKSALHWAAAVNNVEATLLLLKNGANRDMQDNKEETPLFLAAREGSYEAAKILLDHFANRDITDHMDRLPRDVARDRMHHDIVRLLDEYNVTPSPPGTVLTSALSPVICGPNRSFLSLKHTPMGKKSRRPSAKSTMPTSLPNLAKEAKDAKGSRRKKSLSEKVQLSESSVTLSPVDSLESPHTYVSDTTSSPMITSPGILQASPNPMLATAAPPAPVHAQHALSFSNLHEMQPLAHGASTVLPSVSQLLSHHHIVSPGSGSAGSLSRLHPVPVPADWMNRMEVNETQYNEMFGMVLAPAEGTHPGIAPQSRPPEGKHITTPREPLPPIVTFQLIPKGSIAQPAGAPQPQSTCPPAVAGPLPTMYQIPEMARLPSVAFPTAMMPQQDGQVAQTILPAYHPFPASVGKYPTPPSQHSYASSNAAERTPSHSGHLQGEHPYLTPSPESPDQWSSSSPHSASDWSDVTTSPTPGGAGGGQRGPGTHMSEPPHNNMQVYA
# TEST_METHOD_NOTES: Notch2 binders on small-molecule microarrays, primary screen, biochemical, small-molecule microarray, 635 nm fluorescence, stem cell growth factors (AID 1073)
# CONDITIONS: Notch2 binding, higher = more signal
ATTRIBUTE_MEASURED: composite z-score

- COMPOUND: "C#CCN(C(/C=C/c1ccccc1)CO)C(C(=O)O)c1ccccc1 (centres undefined)"
  ATTRIBUTE_MEASURED: "composite z-score"
  RESULT: 0.0504
- COMPOUND: "CCCN1C(=O)[C@@]2(CCC(=O)OC(C)(C)C)N=C(c3ccc(OCCCO)cc3)O[C@H]2c2ccccc21"
  ATTRIBUTE_MEASURED: "composite z-score"
  RESULT: 0.312
- COMPOUND: "O=C1N(CCS(=O)(=O)c2ccccc2)c2ccccc2C[C@@]12COC(c1ccc(OCCCO)cc1)=N2"
  ATTRIBUTE_MEASURED: "composite z-score"
  RESULT: 1.33
- COMPOUND: "O=C1O[C@@H](c2ccccc2)[C@@H](c2ccccc2)N2[C@@H](c3ccc(O)cc3)[C@]3(C(=O)Nc4ccc(C#CC5(O)CCCCCC5)cc43)[C@@H](C(=O)N3CCCCCCC3)[C@H]12"
  ATTRIBUTE_MEASURED: "composite z-score"
  RESULT: 1.66

---

# TEST_METHOD_NOTES: binders of probe aHhip on microarray, primary screen, stem cell growth factor project, biochemical, small-molecule microarray, fluorescence 635/667 (AID 1087);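 note: score merges spot fluorescence at 667nm with spot signal to noise ratio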
# CONDITIONS: higher = more signal
Mark n for composite z-score values under -0.1, and y for everything at or above.

- COMPOUND: "CC(C)N1CC=CC23O[C@@H]4C=CCOC(=O)[C@@H]4[C@H]2C(=O)N(CCO)[C@@H]3C1=O (some centres undefined)"
  CLASS_LABEL: "n"
- COMPOUND: "CC1=C2[C@@H](CCc3ccccc3)OB(O)C[C@@H]2n2c(=O)n(-c3ccccc3)c(=O)n2C1"
  CLASS_LABEL: "n"
- COMPOUND: "O=C1O[C@@H](c2ccccc2)[C@@H](c2ccccc2)N2[C@@H](c3ccc(OCCO)cc3)[C@]3(C(=O)Nc4ccc(C#CC5=CCCCC5)cc43)[C@@H](C(=O)O)[C@H]12"
  CLASS_LABEL: "y"
- COMPOUND: "CN(C)CCCCCCNC(=O)[C@H]1C[C@H]2C(=O)N[C@@H](CCCCN)C(=O)N2[C@H]1c1ccc(O)cc1"
  CLASS_LABEL: "y"
- COMPOUND: "CCOC(=O)[C@H]1C/C=C/C[C@H](C(=O)OCC)C(=O)O[C@H]2[C@@H](OC)O[C@H](CO)[C@@H](OC(=O)Nc3ccc4c(c3)OCO4)[C@@H]2OC1=O"
  CLASS_LABEL: "n"
- COMPOUND: "C=CCOC(=O)[C@H]1[C@@H]2C(=O)O[C@@H](c3ccccc3)[C@@H](c3ccccc3)N2[C@@H](c2ccc(OCCOC(=O)[C@@H]3C[C@@H]4C(=O)NCC(=O)N4[C@@H]3c3ccc(O)cc3)cc2)[C@]12C(=O)Nc1ccccc12"
  CLASS_LABEL: "y"
- COMPOUND: "CCC[C@@H]1C=C(C(=O)O)[C@H](c2ccc(C)cc2)N1S(=O)(=O)c1ccc(C)cc1"
  CLASS_LABEL: "y"
- COMPOUND: "COC(=O)[C@@]1(Cc2ccc(F)cc2)[C@H]2c3cc(C(=O)N(C)C)n(CCc4ccccn4)c3C[C@H]2CN1C(=O)c1ccccc1"
  CLASS_LABEL: "y"
- COMPOUND: "O=C(CS)NCCCCCCNC(=O)[C@H]1C[C@H]2C(=O)NCC(=O)N2[C@H]1c1ccc(O)cc1"
  CLASS_LABEL: "y"
- COMPOUND: "COC(=O)c1ccc(C(O)C2C=CC3C(=O)N(c4ccccc4)C(=O)C3N2Nc2ccc(C#N)cc2)o1 (centres undefined)"
  CLASS_LABEL: "n"
- COMPOUND: "CCOC(=O)C1=CC[C@@H](c2ccccc2)N(S(=O)(=O)c2ccc(C)cc2)[C@H]1C(=O)OCC"
  CLASS_LABEL: "n"
- COMPOUND: "CC(C)NC(=O)[C@@H]1c2ccccc2C(=O)N(Cc2ccccc2Cl)[C@H]1c1ccc(CO)cc1"
  CLASS_LABEL: "n"
- COMPOUND: "O=C1OCC=C[C@H]2OC34C=CCN(c5ccc6ccccc6c5)C(=O)[C@H]3N(CCCO)C(=O)[C@@H]4[C@@H]12 (some centres undefined)"
  CLASS_LABEL: "y"
- COMPOUND: "C#CCN(C(/C=C/c1ccccc1)CO)C(C(=O)O)c1ccccc1 (centres undefined)"
  CLASS_LABEL: "n"
- COMPOUND: "[N-]=[N+]=Nc1ccccc1[C@@H]1OC(c2ccc(OCCCO)cc2)=N[C@]1(CCS(=O)(=O)c1ccccc1)C(=O)N1CCOCC1"
  CLASS_LABEL: "n"
- COMPOUND: "COc1cc2c(cc1O)C(C)N(Cc1cccc(OC(F)(F)F)c1)CC2 (centres undefined)"
  CLASS_LABEL: "n"
- COMPOUND: "O=C1OCCC/C=C\\[C@H]2OC34C=CCN(Cn5nnc6ccccc65)C(=O)[C@H]3N(CCCCCO)C(=O)[C@@H]4C12 (some centres undefined)"
  CLASS_LABEL: "n"
- COMPOUND: "CC(C)N1C(=O)C[C@@](C(=O)NCc2ccccc2)(c2ccc([N+](=O)[O-])cc2)[C@H]1c1ccc(CO)cc1"
  CLASS_LABEL: "n"
- COMPOUND: "COC(=O)[C@@]1(Cc2ccccc2)N=C(c2ccc(OCCCO)cc2)O[C@H]1c1ccccc1N=[N+]=[N-]"
  CLASS_LABEL: "n"
- COMPOUND: "O=c1oc(-c2ccccc2)nc2cc(Br)ccc12"
  CLASS_LABEL: "n"
- COMPOUND: "CC(C)C(=C=CC[C@@H](O)c1ccccc1OCCO)C[C@@H](O)c1ccccn1"
  CLASS_LABEL: "y"
- COMPOUND: "C=CC[C@@]1(C(=O)N2CCOCC2)N=C(c2ccc(OCCCO)cc2)O[C@@H]1c1ccccc1N=[N+]=[N-]"
  CLASS_LABEL: "y"
- COMPOUND: "COC(=O)[C@@]1(Cc2ccccc2)[C@H]2c3cc(C(=O)N4CCCC4)n(Cc4ccc(C)o4)c3C[C@H]2CN1C(=O)c1ccccc1"
  CLASS_LABEL: "y"
- COMPOUND: "COCCOC(=O)N1C(=O)[C@@]2(c3cc(C#CCCO)ccc31)[C@H](c1ccccc1OCCO)N1[C@H](c3ccccc3)[C@H](c3ccccc3)OC(=O)[C@H]1[C@@H]2C(=O)N1CCN(c2ncccn2)CC1"
  CLASS_LABEL: "y"
- COMPOUND: "CCOC(=O)C[C@H]1[C@H](OC(=O)Cc2ccc3c(c2)OCO3)[C@@H](NC(=O)C2CCCCC2)c2cc(OCCCO)ccc2N1C(=O)Cc1ccc(OC)cc1"
  CLASS_LABEL: "y"
- COMPOUND: "O=C(NCc1ccccc1)[C@]1(CCS(=O)(=O)c2ccccc2)N=C(c2ccc(OCCCO)cc2)O[C@@H]1c1ccccc1"
  CLASS_LABEL: "n"
- COMPOUND: "O=C1C[C@@](C(=O)NC2CC2)(c2ccc([N+](=O)[O-])cc2)[C@@H](c2ccc(CO)cc2)N1CC12CC3CC(CC(C3)C1)C2"
  CLASS_LABEL: "n"
